// provenance: the RNAGym collection of RNA variant scans (doi:10.7554/elife.90254)

B1: LINE1-mini (parent)
chain: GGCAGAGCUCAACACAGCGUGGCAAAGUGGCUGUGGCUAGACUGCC

# Variants of: B1
# experiment: self-cleavage, relative activity (ratio to wild type); higher = more cleavage; in vitro, sequencing; the parent is a self-cleaving ribozyme
Listed next: entries and their corresponding self-cleavage.

{"sequence_variant": "G5C C31U", "self-cleavage": 0.05}
{"sequence_variant": "A12U G36U", "self-cleavage": 0.16}
{"sequence_variant": "G2U A41C", "self-cleavage": 0.02}
{"sequence_variant": "A16U C18G", "self-cleavage": 0.05}
{"sequence_variant": "U9C C10U", "self-cleavage": 0.04}
{"sequence_variant": "A24G G44U", "self-cleavage": 0.15}
{"sequence_variant": "A16U G30C", "self-cleavage": 0.45}
{"sequence_variant": "A14C U34G", "self-cleavage": 0.26}
{"sequence_variant": "C3U G44A", "self-cleavage": 1.07}
{"sequence_variant": "U20A A24C", "self-cleavage": 0.28}
{"sequence_variant": "G30C C37G", "self-cleavage": 0.07}
{"sequence_variant": "U20G A39G", "self-cleavage": 0.07}
{"sequence_variant": "A16U C18U", "self-cleavage": 0.07}
{"sequence_variant": "C31U", "self-cleavage": 0.26}
{"sequence_variant": "G22C U34A", "self-cleavage": 0.09}
{"sequence_variant": "A6C G35U", "self-cleavage": 0.09}
{"sequence_variant": "A12U G17A", "self-cleavage": 0.05}
{"sequence_variant": "U34C U38G", "self-cleavage": 0.06}
{"sequence_variant": "U20A G30U", "self-cleavage": 0.93}
{"sequence_variant": "A12G G22C", "self-cleavage": 0.04}
{"sequence_variant": "G5C A39C", "self-cleavage": 0.07}
{"sequence_variant": "G40U G44C", "self-cleavage": 0.16}
{"sequence_variant": "A24U C37G", "self-cleavage": 0.05}
{"sequence_variant": "A4U G30A", "self-cleavage": 0.42}
{"sequence_variant": "C13U G19U", "self-cleavage": 0.23}
{"sequence_variant": "C13A U43G", "self-cleavage": 0.18}
{"sequence_variant": "C8U A24G", "self-cleavage": 0.14}
{"sequence_variant": "G5A A16U", "self-cleavage": 0.07}
{"sequence_variant": "A11G", "self-cleavage": 0.04}
{"sequence_variant": "C15G U20G", "self-cleavage": 0.03}
{"sequence_variant": "C8G G29U", "self-cleavage": 0.11}
{"sequence_variant": "U9C A16G", "self-cleavage": 0.03}
{"sequence_variant": "A25G C31A", "self-cleavage": 0.1}
{"sequence_variant": "G7A G35A", "self-cleavage": 0.3}
{"sequence_variant": "C8G C42U", "self-cleavage": 0.09}
{"sequence_variant": "A12G G21U", "self-cleavage": 0.03}
{"sequence_variant": "A4C C8A", "self-cleavage": 0.32}
{"sequence_variant": "G5A G33U", "self-cleavage": 0.05}
{"sequence_variant": "U20A C46G", "self-cleavage": 0.79}
{"sequence_variant": "C15A U20C", "self-cleavage": 0.04}
{"sequence_variant": "A24C G40A", "self-cleavage": 0.07}
{"sequence_variant": "A4G C31A", "self-cleavage": 0.12}
{"sequence_variant": "C15U C23G", "self-cleavage": 0.81}
{"sequence_variant": "G1A G21U", "self-cleavage": 1.38}
{"sequence_variant": "A4U G22A", "self-cleavage": 0.16}
{"sequence_variant": "C8A A14U", "self-cleavage": 0.25}
